tested on: FXR:RXRa (NR concentration 270 nM, RXRa partner concentration 90 nM); assay: PBM binding z-score (relative to random genomic background probes); higher = stronger binding; sequences stand for … in GC…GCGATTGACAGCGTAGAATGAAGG

sequence-text	PBM binding z-score
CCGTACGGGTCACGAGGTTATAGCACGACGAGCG	6.63
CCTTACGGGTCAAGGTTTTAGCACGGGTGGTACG	4.88
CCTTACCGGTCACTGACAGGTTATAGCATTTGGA	1.09
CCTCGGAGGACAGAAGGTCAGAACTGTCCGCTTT	0.99
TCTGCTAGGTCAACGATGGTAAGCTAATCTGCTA	3.07
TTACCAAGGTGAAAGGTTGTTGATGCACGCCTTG	1.23
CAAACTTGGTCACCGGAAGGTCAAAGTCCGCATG	3.58
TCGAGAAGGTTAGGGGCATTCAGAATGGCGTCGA	0.95
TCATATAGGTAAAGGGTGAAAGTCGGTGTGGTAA	1.34
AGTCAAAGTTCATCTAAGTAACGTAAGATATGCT	6.46
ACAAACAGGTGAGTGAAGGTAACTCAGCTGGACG	0.326
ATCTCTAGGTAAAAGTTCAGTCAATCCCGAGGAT	0.989
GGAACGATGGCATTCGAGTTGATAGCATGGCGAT	-0.471
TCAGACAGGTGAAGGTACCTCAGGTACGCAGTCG	0.559
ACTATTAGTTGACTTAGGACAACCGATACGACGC	0.502
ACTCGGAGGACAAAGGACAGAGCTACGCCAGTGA	-0.12
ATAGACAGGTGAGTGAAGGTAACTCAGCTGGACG	0.729
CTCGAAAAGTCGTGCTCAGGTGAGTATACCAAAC	0.362
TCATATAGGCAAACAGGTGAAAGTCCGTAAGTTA	0.489
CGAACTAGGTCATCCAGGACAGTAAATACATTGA	4.22
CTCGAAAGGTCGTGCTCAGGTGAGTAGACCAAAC	5.65
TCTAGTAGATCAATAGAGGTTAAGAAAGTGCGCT	0.905
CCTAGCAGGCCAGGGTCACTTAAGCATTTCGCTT	1.75
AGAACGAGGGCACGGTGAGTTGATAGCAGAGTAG	1.12
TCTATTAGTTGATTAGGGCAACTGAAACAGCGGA	0.195
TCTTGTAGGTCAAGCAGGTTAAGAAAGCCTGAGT	5.29

====

system: PPARg:RXRa DBDmut IVT, anti-RXR (DBD mutation: RXRa K156A/R161A, NR concentration 270 nM, RXRa partner concentration 90 nM); experiment: PBM binding z-score (relative to random genomic background probes); higher = stronger binding; sequences stand for … in GC…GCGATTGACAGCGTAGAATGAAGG
measured-attribute: PBM binding z-score

sequence-text	assay-result
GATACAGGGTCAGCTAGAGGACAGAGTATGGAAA	1.12
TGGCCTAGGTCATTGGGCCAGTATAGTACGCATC	1.95
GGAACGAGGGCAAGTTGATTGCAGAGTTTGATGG	3.51
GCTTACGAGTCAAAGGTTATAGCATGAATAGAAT	-0.0786
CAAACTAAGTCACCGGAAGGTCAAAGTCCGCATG	2.44
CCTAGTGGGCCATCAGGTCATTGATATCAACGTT	4.56
